testProtocol: Shakability of the composition
Assay type: physicochemical
conditionParameters: active agent in stock of PEG-400 97.5, hydroxypropyl cellulose 0.5, steareth 2 2.0 (first Example 29)
Source text: ‘Shakability’ means that the composition contains some or sufficient flow to allow the composition to be mixed or remixed on shaking. That is, it has fluid or semi fluid properties. A breakable foam is that is thermally stable, yet breaks under sheer force. ‘Shakability’ means that the composition contains some or sufficient flow to allow the composition to be mixed or remixed on shaking. That is, it has fluid or semi fluid properties. […]
Where a name gives a salt, the structure may show the parent alone.
experimentalEndpoint: SHAKABILITY

These solved cases illustrate the format of a correct answer.
O=C(OOC(=O)c1ccccc1)c1ccccc1 [Benzoyl peroxide] ... Yes
CC(=O)N1CCN(c2ccc(OCC3COC(Cn4ccnc4)(c4ccc(Cl)cc4Cl)O3)cc2)CC1 (stereo not drawn) ... Yes
C=C1/C(=C\C=C2/CCC[C@]3(C)[C@@H]([C@H](C)/C=C/[C@@H](O)C4CC4)CC[C@@H]23)C[C@@H](O)C[C@@H]1O [Calcipotriol hydrate] ... Yes
O=C(O)CCCCCCCC(=O)O ... Yes
CCCCC(=O)O[C@]1(C(=O)CO)[C@@H](C)C[C@H]2[C@@H]3CCC4=CC(=O)C=C[C@]4(C)[C@@]3(F)[C@@H](O)C[C@@]21C [Betamethasone 17 valerate micronized, Betamethasone 17 valerate] ... Yes

Query: Item under review: CN(C/C=C/C#CC(C)(C)C)Cc1cccc2ccccc12 [Terbinafine HCl] . Reported SHAKABILITY?
Reply: Yes

Query: # iterate: `Cc1cc(C2CCCCC2)n(O)c(=O)c1`
Reply: Yes

Query: Another compound to look at: `C/C(=C\C(=O)OCCCCCCCCC(=O)O)C[C@@H]1OC[C@H](C[C@@H]2O[C@H]2[C@@H](C)[C@H](C)O)[C@@H](O)[C@H]1O`
Reply: Yes

Query: What would you report for O=C(O)Cc1ccccc1Nc1c(Cl)cccc1Cl [Diclofenac sodium] ?
Reply: Yes
